- tested.target: T1, full length human tau protein 2N4R (hT40) (human, UniProt P10636 1-758)
- T1 construct: recombinant; also called T441
- T1 sequence (P10636 other isoform, or with tags, fused parts or gaps limits assumed): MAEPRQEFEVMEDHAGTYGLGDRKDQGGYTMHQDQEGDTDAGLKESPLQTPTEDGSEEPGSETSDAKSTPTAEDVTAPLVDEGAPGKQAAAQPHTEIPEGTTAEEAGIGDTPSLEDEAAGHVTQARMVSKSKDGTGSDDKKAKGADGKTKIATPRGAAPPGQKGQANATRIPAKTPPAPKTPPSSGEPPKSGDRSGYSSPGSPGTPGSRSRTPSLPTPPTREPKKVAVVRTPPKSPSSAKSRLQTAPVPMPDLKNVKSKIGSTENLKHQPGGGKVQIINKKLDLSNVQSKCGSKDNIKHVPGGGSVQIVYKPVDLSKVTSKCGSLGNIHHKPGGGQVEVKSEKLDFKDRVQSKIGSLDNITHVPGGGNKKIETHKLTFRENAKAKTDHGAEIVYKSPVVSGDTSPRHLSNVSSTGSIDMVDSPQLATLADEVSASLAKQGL
- experimental.details: SPR, hT40 immobilised, mAb analyte
Threshold 0.3 nM: Kd strictly smaller gives t, otherwise f.

3bG4 mAb (antibody, mouse IgG2a, V domains shown, sheep-mouse IgG2a chimeric mAb) VH: QVQLQESGPSLVKPSQTLSLTCTISGFSLISNGVGWVRQAPGKVPEWVGDIASSGKAYSNPALKSRLSITRDTSKSQVSLSLRSVTTEDTAVYYCVRCRDGGVTYGYDIDYWGPGLLVTVSS VL: QAVLTQPSSVSKSLGQSVSITCSGSTSNVGSGNDVSWFQQVPGSAPKLLFYGATNRASGVPDRFSGSRSGNTATLTITSLQAEDEADYYCGSYDSNSGGIFGSGTRLTVLG    t

Request: Please check: Kd for MD9 mAb (antibody, V domains shown) VH: QVRLQESGPSLVKSSQTLSLTCTVSGFSLTRESIAWVRQAPGKVPEWLGGVGIDGTSYYSPALKSRLSITRDTSKSQASLSLSSVATEDTAMYYCARNYIDFEYWGPGLLVTVSS VL: QAVLTQLSSVSGSLGQRISITCSGSSSNVGIYDVSWFQQLPGSGLRTVIYGTNNRPSGVPDRFSGSRSGNTATLTISSLQSEDEAIYYCAAGDSSTIAVFGSGTRLTVLG , strictly under 0.3 nM or not?
Result: f

Request: In the record for 3aG3 mAb (antibody, V domains shown) VH: QVQLQESGPSLVKPSQTLSLTCTVSGFSLSSNGVGWVRQAPGKVPEWVGDISSSGKAYANPALKSRLSITRDTAKTQVFLSLSSVTTEDTAVYYCVRCRDGGVSYGYDIDYWGPGLLVTVSS VL: QAVLTQPPSVSGSPGQRVSITCSGSSSNIGGGNYLSWFQQVPGSAPKLLIYGATSRASGVPDRFSGSRSGNTATLTISSLQAEDEADYYCASFDTSSGGIFGAGTRLTVLG , is Kd less than 0.3 nM?
Result: f

Request: Determine if 3bD11 mAb (antibody) RVRLQGSGPSLVKPSQTLSLTCTVSGFSFDSYYVGWVRQAPGKALEWLGNIYSTGRAFYNPALKSRLSITRDTSKSQVSLSVSSVTIEDTALYYCVRGSYYHGGGNGMVDFFDYWSPGLLVTVSSEGKSSGASGESKVDDQVVRTQPSSVSGSLGQRVSITCSGSSSNVGYGNYVGWFQQVPGSAPKLLIYAATSRASGVPDRFSGSRSGNTATLTIDSLQAEDEADYYCSSYQRGNTGVFGSGTRLTVLG shows Kd strictly lower than 0.3 nM.
Result: f

Request: State whether 0.3 nM exceeds Kd recorded for E1B8 mAb (antibody, V domains shown) VH: QVQLQESGPSLVKPSQTLSLTCTVSGFSLTNYPVGWVRQAPGKALEWIGNIENDGSANYASALKSRLSITRDTSKNQVSLSLSSATTEDTAVYYCGREFGGSDGYTYFVDIDYWGPGLLVTVSS VL: QAVLTQPSSVSKSLGQSVSITCSGSSSNVGYGNYVSWFQQVPGSAPKILIYGATSRASGVPDRFSGSRSGNTATLTITSLQAEDEADYYCASYDGSSSGVFGSGTRLTVLG .
Result: f
